pIC50: recorded values
measured on: human TLR4 (Homo sapiens, UniProt O00206+Q9Y6Y9)
Sequence (O00206 24-839): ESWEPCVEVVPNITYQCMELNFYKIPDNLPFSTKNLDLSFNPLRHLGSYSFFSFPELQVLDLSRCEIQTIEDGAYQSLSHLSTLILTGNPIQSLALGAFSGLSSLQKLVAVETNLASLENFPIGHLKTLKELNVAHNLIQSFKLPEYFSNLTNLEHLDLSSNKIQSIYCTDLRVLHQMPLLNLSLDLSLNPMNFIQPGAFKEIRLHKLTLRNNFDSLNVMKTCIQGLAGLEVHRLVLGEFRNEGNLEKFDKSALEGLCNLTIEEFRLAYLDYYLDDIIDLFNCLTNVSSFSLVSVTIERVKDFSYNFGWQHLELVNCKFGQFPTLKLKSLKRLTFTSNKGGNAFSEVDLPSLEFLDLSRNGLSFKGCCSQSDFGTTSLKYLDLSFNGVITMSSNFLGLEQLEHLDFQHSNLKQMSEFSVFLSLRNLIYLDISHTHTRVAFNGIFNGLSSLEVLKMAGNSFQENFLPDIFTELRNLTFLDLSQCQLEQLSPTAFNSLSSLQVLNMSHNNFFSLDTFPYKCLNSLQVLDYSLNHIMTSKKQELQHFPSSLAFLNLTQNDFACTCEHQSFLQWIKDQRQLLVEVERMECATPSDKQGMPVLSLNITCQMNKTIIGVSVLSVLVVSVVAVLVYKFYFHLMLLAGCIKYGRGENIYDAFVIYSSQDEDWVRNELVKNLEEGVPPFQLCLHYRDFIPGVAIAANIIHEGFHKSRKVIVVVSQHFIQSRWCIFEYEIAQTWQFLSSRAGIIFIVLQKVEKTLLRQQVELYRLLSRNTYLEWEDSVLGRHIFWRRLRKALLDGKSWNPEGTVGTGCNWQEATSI
Sequence (Q9Y6Y9 17-160 limits assumed): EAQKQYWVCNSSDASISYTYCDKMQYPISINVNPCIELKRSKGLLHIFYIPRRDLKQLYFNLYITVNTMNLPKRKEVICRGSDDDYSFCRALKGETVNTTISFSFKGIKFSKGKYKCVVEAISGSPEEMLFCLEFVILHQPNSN
test protocol: Inhibition curves (IC50 format): antagonist diluted in a fixed concentration of reference agonist, human TLR4 HEK-Blue SEAP
measurement setup: fixed PHAD 30 nM; 95% CI given
pIC50: −log10 of the molar value.
measured endpoint: pIC50

compound: CCCCCCCCCCCC(=O)OC(CCCCCCCCCCC)CC(=O)NC1C(OCC2OC(O)C(NC(=O)CC(O)CCCCCCCCCCC)C(O)C2O)OC(CO)C(OP(=O)(O)O)C1OC(=O)CC(O)CCCCCCCCCCC (stereo not drawn) [ML4A]
measured on: human TLR4 (Homo sapiens, UniProt O00206+Q9Y6Y9)
measured endpoint: pIC50
assay value: 6.40

compound: CCCCCCCCCCCC(=O)OC(CCCCCCCCCCC)CC(=O)NC1C(OCC2OC(O)C(NC(=O)CC(O)CCCCCCCCCCC)C(O)C2O)OC(CO)C(OP(=O)(O)O)C1O (stereo not drawn) [ML3]
measured on: human TLR4 (Homo sapiens, UniProt O00206+Q9Y6Y9)
measured endpoint: pIC50
assay value: 5.88

compound: CCCCCCCCCCC[C@@H](O)CC(=O)N[C@H]1[C@H](OC[C@H]2O[C@H](OP(=O)(O)O)[C@H](NC(=O)C[C@H](O)CCCCCCCCCCC)[C@@H](OC(=O)C[C@H](O)CCCCCCCCCCC)[C@@H]2O)O[C@H](CO)[C@@H](OP(=O)(O)O)[C@@H]1OC(=O)C[C@H](O)CCCCCCCCCCC [Lipid IVa, reference compound]
measured on: human TLR4 (Homo sapiens, UniProt O00206+Q9Y6Y9)
measured endpoint: pIC50
assay value: 9.72

---

measured on: human TLR4 (Homo sapiens, UniProt O00206+Q9Y6Y9)
test protocol: SEAP assay, agonist dose response in human TLR4 HEK-Blue reporter cells
Assay type: cell-based
Set-up: host or cells: HEK-Blue (HEK293-derived) reporter cells
measurement setup: human TLR4 HEK-Blue reporter cells

compound: CCCCCCCCCCCC(=O)OC(CCCCCCCCCCC)CC(=O)NC1C(OCC2OC(O)C(NC(=O)CC(O)CCCCCCCCCCC)C(O)C2O)OC(CO)C(OP(=O)(O)O)C1O (stereo not shown)
measured on: human TLR4 (Homo sapiens, UniProt O00206+Q9Y6Y9)
agonist profile: largely inactive
//
compound: CCCCCCCCCCCCCCCC(=O)OC(CCCCCCCCCCC)CC(=O)NC1C(O)OC(COC2OC(CO)C(OP(=O)(O)O)C(O)C2NC(=O)CC(CCCCCCCCCCC)OC(=O)CCCCCCCCCCC)C(O)C1O (stereo not shown)
measured on: human TLR4 (Homo sapiens, UniProt O00206+Q9Y6Y9)
agonist profile: largely inactive

---

measured on: mouse TLR4 (Mus musculus, UniProt Q9JHF9+Q9QUK6)
Sequence (Q9QUK6 26-835): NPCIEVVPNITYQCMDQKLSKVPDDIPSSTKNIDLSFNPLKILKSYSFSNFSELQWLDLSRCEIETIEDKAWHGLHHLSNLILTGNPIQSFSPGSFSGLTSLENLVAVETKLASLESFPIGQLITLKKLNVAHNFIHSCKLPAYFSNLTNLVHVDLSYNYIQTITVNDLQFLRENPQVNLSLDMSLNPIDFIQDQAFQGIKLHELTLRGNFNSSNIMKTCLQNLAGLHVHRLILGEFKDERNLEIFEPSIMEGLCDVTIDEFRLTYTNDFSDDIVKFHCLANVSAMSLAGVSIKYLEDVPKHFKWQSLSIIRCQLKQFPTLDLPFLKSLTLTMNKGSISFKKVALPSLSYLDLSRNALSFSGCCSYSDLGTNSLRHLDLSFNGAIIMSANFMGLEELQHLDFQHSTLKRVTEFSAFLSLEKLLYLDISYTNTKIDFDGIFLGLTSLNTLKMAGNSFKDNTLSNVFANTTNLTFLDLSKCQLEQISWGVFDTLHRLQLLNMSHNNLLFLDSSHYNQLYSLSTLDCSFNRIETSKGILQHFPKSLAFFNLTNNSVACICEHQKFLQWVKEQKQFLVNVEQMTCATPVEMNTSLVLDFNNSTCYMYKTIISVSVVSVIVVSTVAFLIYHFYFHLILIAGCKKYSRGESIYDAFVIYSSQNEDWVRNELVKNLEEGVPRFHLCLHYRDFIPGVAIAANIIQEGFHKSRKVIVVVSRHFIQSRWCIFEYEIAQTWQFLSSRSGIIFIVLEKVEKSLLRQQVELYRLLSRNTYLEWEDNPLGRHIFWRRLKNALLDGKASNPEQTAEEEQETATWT
Sequence (Q9JHF9 19-160): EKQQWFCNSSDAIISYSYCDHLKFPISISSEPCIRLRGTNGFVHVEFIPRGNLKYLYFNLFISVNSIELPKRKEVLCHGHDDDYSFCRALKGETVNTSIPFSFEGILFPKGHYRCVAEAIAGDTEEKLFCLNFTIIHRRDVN
test protocol: SEAP assay, agonist dose response in mouse TLR4 HEK-Blue reporter cells
Format: cell-based
Set-up: host or cells: HEK-Blue (HEK293-derived) reporter cells
measurement setup: mouse TLR4 HEK-Blue reporter cells

compound: CCCCCCCCCCCC(=O)OC(CCCCCCCCCCC)CC(=O)NC1C(OCC2OC(O)C(NC(=O)CC(O)CCCCCCCCCCC)C(O)C2O)OC(CO)C(OP(=O)(O)O)C1O (centres unmarked) [ML3]
agonist profile: largely inactive
--
compound: CCCCCCCCCCCCCCCC(=O)OC(CCCCCCCCCCC)CC(=O)NC1C(O)OC(COC2OC(CO)C(OP(=O)(O)O)C(O)C2NC(=O)CC(CCCCCCCCCCC)OC(=O)CCCCCCCCCCC)C(O)C1O (centres unmarked) [ML4B]
agonist profile: largely inactive
